compounds and their reported Ki
Molecular target: Human urokinase type plasminogen activator (h u-PA) (Homo sapiens, UniProt P00749)
Construct: purchased MEDAC GmbH Urokinase HS medac
Assay: Inhibition of human urokinase type plasminogen activator (reference enzyme)
Assay type: biochemical
Settings: H-Glu-Gly-Arg-pNA substrate

NCc1ccc(Cl)cc1CNC(=O)[C@@H]1CCCN1C(=O)[C@@H](CCC(=O)N1CCOCC1)NC(=O)OCc1ccccc1 : > 50 µM

# query: Ki of entry NCc1ccc(Cl)cc1CNC(=O)[C@@H]1CCCN1C(=O)[C@@H](CC(=O)N1CC[C@@H](N)C1)NS(=O)(=O)Cc1ccccc1 > 20 µM

What do we get for O=C(NCc1cc(Cl)ccc1-n1cnnn1)[C@@H]1CCCN1C(=O)[C@@H](CCC(=O)N1CCOCC1)NS(=O)(=O)Cc1ccccc1 ? > 100 µM
